I'd be grateful if you could share measured IC50 for these entries.
Numbered stars: 1 amine (or outer) side, 2 acyl side, 3 side chain; on linkers, the order of the positions; unused ones are H or OH. Square brackets hold non-standard residues; d marks the D form. Side chains are listed from the residue outwards. Peptide text beside a SMILES is read from it. NMeF = CN[C@@H](Cc1ccccc1)C(=O)O; CO = O=C([*:1])[*:2]
Please state the figure in µM; there is no need to write the unit.

Q: # get_value(readout= IC50, system= Chitotriosidase-1 (Homo sapiens, UniProt Q13231)) for CNC(=O)NC(N)=NCCC[C@H](NC(=O)[C@@H](C)NC(C)=O)C(=O)N(C)[C@@H](Cc1ccccc1)C(=O)N[C@@H](CC(=O)O)C(=O)O [Tetrapeptide]
Result: 28

Q: # get_value(readout= IC50, system= Chitotriosidase-1 (Homo sapiens, UniProt Q13231)) for CNC(=O)NC(=N)NCCC[C@H](NC(C)=O)C(=O)N(C)[C@@H](Cc1ccccc1)C(=O)O
Result: 190

Q: # get_value(readout= IC50, system= Chitotriosidase-1 (Homo sapiens, UniProt Q13231)) for [H]/N=C(\NC)NC(=O)NC [Argifin-Derived Fragments, 1]
Result: 5800

Q: # get_value(readout= IC50, system= Chitotriosidase-1 (Homo sapiens, UniProt Q13231)) for CNC(=O)NC(N)=NCCC[C@H](NC(C)=O)C(=O)N(C)[C@@H](Cc1ccccc1)C(=O)N[C@@H](CC(=O)O)C(=O)O [Tripeptide] (Ac-Arg([CO-NHMe])-[NMeF]-Asp-OH)
Result: 68

Q: # get_value(readout= IC50, system= Chitotriosidase-1 (Homo sapiens, UniProt Q13231)) for CNC(=O)NC(N)=NCCC[C@H](NC(C)=O)C(=O)NC [Monopeptide]
Result: 1000

Every entry's value here was drawn from BindingDB's records for doi:10.1016/j.chembiol.2008.02.015.
